Some variants, each annotated with its measured protein stability index.
B1: NEUROD6 (parent)
chain: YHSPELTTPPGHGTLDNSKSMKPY

Variants of: B1
test-name: protein stability index of a GFP-peptide fusion (GPS, HEK-293T) (PSI 1-6); higher = more stable;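 further: lentivirally expressed fusions sorted by FACS into six bins by GFP to DsRed ratio, PSI derived from sequencing read proportions per bin multiplied by bin number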
experimental-conditions: c terminus: a fixed tail appended
Please reply with the value in numeric form only.

>>> print(df.to_string())
           sequence_content        measured_property  test_result
0  YHSPELTTPPGHGTLDNSKSMKLY  protein stability index         2.44
1  YHSPILTTPPGHGTLDNSKSMKPY  protein stability index         2.25
2  YISPELTTPPGHGTLDNSKSMKPY  protein stability index         2.17

INPUT: # get_value(readout='protein stability index', item= `YHMPELTTPPGHGTLDNSKSMKPY` )
OUTPUT: 1.94

INPUT: Fill blank: measured protein stability index of the variant `YHSPSLTTPPGHGTLDNSKSMKPY` is ____.
OUTPUT: 2.29

INPUT: Please give the measured protein stability index for this variant: `YHSPELTTPPGHGTLDNSKSPKPY`
OUTPUT: 2.62

INPUT: Find the recorded protein stability index belonging to `YHSPELTTPPGHGTWDNSKSMKPY` and report it.
OUTPUT: 1.82

INPUT: Which protein stability index value is on record for `YHSPELTTPPGHGTLDNSKSMKFY` ?
OUTPUT: 2.33

Values were extracted from the supplement of paper PMC10567573.
